TARGET DESC: T1, CD27 expressed on the cell surface (HT1080_CD27 cells) (human, UniProt P26842 20-260)
T1 construct: whole, on cells; also called K562_CD27
T1 sequence (looked up): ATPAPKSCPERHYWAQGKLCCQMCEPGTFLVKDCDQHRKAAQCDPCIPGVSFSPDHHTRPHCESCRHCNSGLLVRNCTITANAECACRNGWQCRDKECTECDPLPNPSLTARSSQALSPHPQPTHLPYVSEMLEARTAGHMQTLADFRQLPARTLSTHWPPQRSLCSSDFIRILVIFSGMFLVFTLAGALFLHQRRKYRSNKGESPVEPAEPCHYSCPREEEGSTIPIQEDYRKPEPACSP
TEST PROTOCOL: cellular binding assay, HT1080_CD27 cells; further: test concentration or dose not given here
// Cellular binding assay [RFU] lookup, one value per entry
Give just the numeric value; RFU need not be written.

{"BINDER": "P018.S.07.A.G02 (antibody, V domains shown, V regions on human Ig constant parts; also called AB27_129) VH: QSVEESGGRLVTPGTPLTLTCTVSGFSLSSYDMSWVRQAPGKGLEWIGWITTDGGTDYASWAKGRFTVSKASTTVDLKITSPTTEDTATYFCARGYASFNLWGQGTLVTVSS VL: AQVLTQTPSSVSAAVGGTVTINCQSSQSVLSNSYLAWYQQKPGQPPKLLIYAASSLASGVPSRFKGSGSGTQFTLTISDLESDDAATYYCQGTDYSGGWYVAFGGGTEVVVK", "UNIT LABEL": "RFU", "Cellular binding assay [RFU]": 453}
{"BINDER": "P018.S.09.A.D05 (antibody, V domains shown, V regions on human Ig constant parts; also called AB27_152) VH: QSLEESGGRLVTPGGSLTLTCTVSGIDLSSYAMDWVRQAPGKGLEWIGVIGAGGSTYYASWANGRFTISKTSTTVDLKISSPTTEDTATYFCARDIGGDYSSRYYFSLWGPGTLVTVSS VL: DIVMTQTPASVEAAVGGTVTIKCQASQSTSTALAWYQQKPGQRPKLLIYDSSKLASGVPSRFSGSGSGTEFTLTISGVQSDDAASYYCQQGYNINNVAFGGGTEVVVK", "UNIT LABEL": "RFU", "Cellular binding assay [RFU]": 400}

Now, please, on to the next binder.
Reported Cellular binding assay [RFU], binder P018.S.09.A.E03 (antibody, V domains shown, V regions on human Ig constant parts; also called AB27_154) VH: QSVEESGGRLVTPGTPLTLTCTASGFSLSSYYMGWVRQAPGKGLEWIGFITSGGSGSTYYASWAKGRFTISKTSTTVDLKMTSLTTEDTATYFCARYGDSFYWALDLWGQGTLVTVSS VL: AQVLTQTPSSVSAAVGGTVTINCQSSQSVLNNDLSWYQQKPGQPPKLLIYAASTLASGVPSRFKGSGSGTQFTLTINVGQSDDAATYYCQGYFIDVNNPFGGGTEVVVK : ____
334
